Answer each item with its documented pIC50.
TARGET_SYSTEM: AHR (Mus musculus)
Sequence (P30561 whole entry P471L/N533S/M589L, form open): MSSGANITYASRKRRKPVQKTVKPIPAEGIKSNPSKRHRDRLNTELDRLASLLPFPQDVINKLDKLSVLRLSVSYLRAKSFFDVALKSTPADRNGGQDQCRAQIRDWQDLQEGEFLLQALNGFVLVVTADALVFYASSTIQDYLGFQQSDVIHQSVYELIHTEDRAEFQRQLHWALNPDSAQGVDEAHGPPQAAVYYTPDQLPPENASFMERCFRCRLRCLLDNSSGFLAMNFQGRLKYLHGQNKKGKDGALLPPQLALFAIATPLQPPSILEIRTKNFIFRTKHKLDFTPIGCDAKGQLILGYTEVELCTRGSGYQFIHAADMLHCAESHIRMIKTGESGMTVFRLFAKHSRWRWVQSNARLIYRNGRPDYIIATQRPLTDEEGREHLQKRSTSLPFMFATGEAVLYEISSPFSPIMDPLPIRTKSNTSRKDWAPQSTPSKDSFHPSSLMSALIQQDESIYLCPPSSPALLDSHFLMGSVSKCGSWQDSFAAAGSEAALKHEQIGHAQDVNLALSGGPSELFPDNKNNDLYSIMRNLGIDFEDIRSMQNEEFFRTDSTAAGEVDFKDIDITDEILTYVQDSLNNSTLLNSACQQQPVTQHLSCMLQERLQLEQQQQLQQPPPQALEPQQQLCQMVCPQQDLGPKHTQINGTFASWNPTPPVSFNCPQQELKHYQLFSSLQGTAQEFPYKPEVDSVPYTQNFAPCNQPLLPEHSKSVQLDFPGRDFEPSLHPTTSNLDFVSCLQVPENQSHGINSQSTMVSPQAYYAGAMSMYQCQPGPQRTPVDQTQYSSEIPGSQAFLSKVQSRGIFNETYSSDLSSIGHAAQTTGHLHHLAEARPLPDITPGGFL
EXPERIMENT_NOTES: In vitro assay 3: antagonism in mouse cell line (AHR transactivation, firefly luciferase reporter, kynurenic acid prestimulated)
Assay type: cell-based
TEST_SETTINGS: read-out: AHR Antagonism Mouse IC50, Hepa 1c1c7 cells, 200 μM kynurenic acid, 20 hours, firefly luciferase reporter
Schema: pIC50 number; meaning minus log10 of the concentration expressed in molar units.

Ask | Please state recorded pIC50 (tested on AHR (Mus musculus)) of N#Cc1cccc2c1nc(N[C@@H]1CNCCNC1=O)n1nc(-c3cnn(C(F)F)c3)nc21 [Example 934]
Reply | 6.94

Ask | pIC50 of COc1ccc(-c2nc3c4cccc(Br)c4nc(N[C@@H]4CS(=O)(=O)CCNC4=O)n3n2)cc1 [Example 851] on AHR (Mus musculus)?
Reply | 8.75

Ask | # query: pIC50 | item CC[C@H](Nc1nc2c(Br)cccc2c2nc(-c3ccnn3C)nn12)C(N)=O [Example 801] | system: AHR (Mus musculus)
Reply | 7.39

Ask | Lab request: please report pIC50 under test system AHR (Mus musculus) for COc1ccc(-c2nc3c4cccc(Br)c4nc(N[C@H](C)C(=O)N4CC5(COC5)C4)n3n2)cc1 [Example 916]
Reply | 8.65

Ask | Recall the recorded pIC50 for CC[C@@H](Nc1nc2ccccc2c2nc(-c3cn(C)nn3)nn12)C(N)=O [Example 793] with AHR (Mus musculus) and state it.
Reply | 6.16

Ask | Find pIC50 (AHR (Mus musculus)) for the entry C[C@@H](Nc1nc2ccccc2c2nc(-c3ccccc3OC(F)(F)F)nn12)C(=O)NCCN(C)C [Example 791]
Reply | 6.58

Ask | # query: pIC50 | item O=C1NCCNC[C@@H]1Nc1nc2c(Br)cccc2c2nc(-c3cnn(C4CC4)c3)nn12 [Example 953] | system: AHR (Mus musculus)
Reply | 7.83

Ask | What reported pIC50 corresponds to COc1ccc(-c2nc3c4cccc(Br)c4nc(N[C@H](C)C(=O)NCCN(C)C(=O)OC(C)(C)C)n3n2)cc1 [Example 887] on AHR (Mus musculus)?
Reply | 8.00

Ask | So what pIC50 did C[C@@H](Nc1nc2c(Br)cccc2c2nc(-c3cnn(C)c3)nn12)C(=O)N1CC2(COC2)C1 [Example 917] get with AHR (Mus musculus)?
Reply | 7.18

Ask | Report pIC50 for COc1ccc(-c2nc3c4cccc(Br)c4nc(N[C@H](C)C(=O)N4CCOC[C@H]4C)n3n2)cc1 [Example 911] tested on AHR (Mus musculus).
Reply | 8.70

Ask | Request body: readout pIC50, system AHR (Mus musculus), query CC[C@@H](Nc1nc2c(Br)cccc2c2nc(-c3ccnn3C)nn12)C(N)=O [Example 800] . Return the value.
Reply | 8.77

Ask | Missing value: pIC50, AHR (Mus musculus), entry O=C1NCCNC[C@H]1Nc1nc2c(Br)cccc2c2nc(-c3cnn(C4CC4)c3)nn12 [Example 952] . Fill in?
Reply | 8.17

Ask | GET /values?readout=pIC50&system=AHR (Mus musculus)&item= C[C@@H](Nc1nc2c(C(F)(F)F)cccc2c2nc(-c3cnn(C)c3)nn12)C(=O)N1CC2(COC2)C1 [Example 880]
Reply | 6.71

Where do the numbers come from? From patent US20230113037A1.
